Source of measurements: ChEMBL document CHEMBL4043240

System: Vero
Experiment: Cytotoxicity against African green monkey Vero cells after 72 hrs by MTT assay
Assay type: ADME, cell-based
Settings: Chlorocebus sabaeus
metric: IC50

Below, each entry is followed by its recorded IC50 result.
smi | IC50
COc1cccc(-c2ccnc(Nc3cccc(S(N)(=O)=O)c3)n2)c1 | 1.1 µM
COC(=O)c1ccc(Nc2nccc(-c3ccc(OC)cc3)n2)cc1 | 4.5 µM
COc1ccc(-c2ccnc(Nc3ccc(C(=O)O)cc3)n2)cc1 | > 100 µM
Cc1csc(-c2ccnc(Nc3ccc(C(=O)O)cc3)n2)c1 | 80.8 µM

Next compound, please.
For this compound ( "Cc1csc(-c2ccnc(Nc3cc([N+](=O)[O-])ccc3O)n2)c1" ), measured IC50 is > 100 µM

====

Test system: Vero
Assay: Cytotoxicity against African green monkey Vero cells after 72 hrs by MTT assay
Type: ADME, cell-based
Conditions: Chlorocebus sabaeus
metric: IC50 (µM)
Give the number; µM is assumed, so skip it.

Below are worked cases with known answers.
smi | IC50, µM
CS(=O)(=O)c1ccc(-c2ccnc(Nc3cccc(C(N)=O)c3)n2)cc1 | 37.9
NS(=O)(=O)c1cccc(Nc2nccc(-c3ccccc3)n2)c1 | 0.8
COc1ccc(-c2ccnc(Nc3ccc(C(N)=O)cc3)n2)cc1 | 5.4
CC(=O)Nc1ccc(-c2ccnc(Nc3cccc(S(N)(=O)=O)c3)n2)cc1 | 8.7
COc1ccc(-c2ccnc(Nc3ccc4nc[nH]c4c3)n2)cc1 | 14.8

IC50 in this record for "COc1ccc(-c2ccnc(Nc3cccc(C(N)=O)c3)n2)cc1" : 2.7

Per the records, this molecule ( "Cc1csc(-c2ccnc(Nc3ccc(C(N)=O)cc3)n2)c1" ) has IC50 equal to 6.2

Entry "COc1ccc(-c2ccnc(Nc3ccc(S(N)(=O)=O)cc3)n2)cc1" ; IC50 = 2.4

Form: molecule = "COc1ccc(-c2ccnc(Nc3cccc(NS(C)(=O)=O)c3)n2)cc1" ; IC50 = 0.9

Just so you know, measured IC50 for "COc1cccc2c1C(=O)c1c(O)c3c(c(O)c1C2=O)C[C@@](O)(C(=O)CO)C[C@@H]3O[C@H]1C[C@H](N)[C@H](O)[C@H](C)O1" came out at 1.4

====

Molecular target: Cyclin-dependent kinase 5 (Homo sapiens, UniProt Q00535)
Sequence (Q00535 whole entry): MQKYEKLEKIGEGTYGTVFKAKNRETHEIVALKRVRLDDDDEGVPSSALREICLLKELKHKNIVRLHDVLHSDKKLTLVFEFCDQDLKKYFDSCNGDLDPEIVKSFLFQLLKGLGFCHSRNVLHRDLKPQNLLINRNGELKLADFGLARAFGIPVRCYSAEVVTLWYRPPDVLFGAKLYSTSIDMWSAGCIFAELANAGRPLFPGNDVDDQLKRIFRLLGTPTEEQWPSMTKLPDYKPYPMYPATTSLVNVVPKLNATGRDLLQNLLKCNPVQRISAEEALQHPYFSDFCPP
metric: IC50 (µM)
Please state the figure in µM; there is no need to write the unit.

Field IC50 (entry "COc1ccc(-c2ccnc(Nc3cccc(N)c3)n2)cc1" ) reads 81

====

System: KB
Experiment: Cytotoxicity against human KB cells after 72 hrs by resazurin based fluorescence assay
Type: functional, cell-based
Catalogue of molecules with associated IC50
The reply should contain only the number, in nM.

Example results:
molecule | IC50 (nM)
COc1cccc2c1C(=O)c1c(O)c3c(c(O)c1C2=O)C[C@@](O)(C(=O)CO)C[C@@H]3O[C@H]1C[C@H](N)[C@H](O)[C@H](C)O1 [DOXORUBICIN] | 1350
NS(=O)(=O)c1cccc(Nc2nccc(-c3ccccc3)n2)c1 | 2440
COc1cccc(-c2ccnc(Nc3cccc(S(N)(=O)=O)c3)n2)c1 | 3560

Form: molecule = Cc1c2ccncc2c(C)c2c1[nH]c1ccccc12 [ELLIPTECINE] ; IC50 = 2810

Record summary for "COc1ccc(-c2ccnc(Nc3cccc(S(N)(=O)=O)c3)n2)cc1" : reported IC50 = 1290
